- tested.target: T1, JCV VP1 VLP (JC virus (JCV), Mad-1 strain, UniProt P03089 1-354)
- T1 construct: also called JCV VP1 VLPs; JCV VP1 (coating with reassociation buffer)
- protocol: direct ELISA
Known EC50 of a selection of binders
Respond numerically; units are nM and should not be typed.

Find the recorded EC50 belonging to NI-307.24C6 (antibody, V domains shown) VH: QLQLQESGPGLVKPSGTLSLICVVSGSSIRSNIWWWNWVRQSPGKGLEWIGEIYHSGSTNYSPSLKSRVTMSVDNSKNQFSLKMSSVTAADTAVYFCAINTRTSISGVLYDTFDVWGQGTMVTVSS VL: EIVLTQSPATLSLSSGERATLSCRASQSVSGYLAWYQQKPGQAPRLLIYDGSNRATGIPARFSGSGSGTDFTLTISSLEPEDFAVYYCQHRSNWPMYTFGQGTKLEIK and report it. 2.84

Field entry: NI-307.3G4 (antibody, V domains shown) VH: QVQLVQSGAELKKPGAAVKVSCQASGYNFLSYGINWVRQIPGQGLQWLGWISTYDGTMNYDQKPDNRVTVTTDTSSSTVYLELRGLRSDDTGVYYCVRDRCAGAGCSHSLGYWGQGTLVTVSS VL: DIQMTQSPSALSASVGDRVTISCRASQNINTQLNWYQEKPGKAPELLIYGAFNLQSGAPSTFSGSGSGTDFTLTITSLQPEDFASYYCQQGFHAPYTFGRGTKVDIK 28.2

Same question for NI-307.5H3 (antibody, V domains shown) VH: QVQLQESGPGLLKPLGTLSLICDVSGDSISSSNWWSWVRQSPRKGLEWIGEIYHSGRTNYNPSLTNRVTISVDKSKNQFSLNLNSVTAADTGVYYCARWDYYYNNDYYIRGFDIWGQGTMVTVSS VL: EIVLTQSPGILSLSPGERATLSCRASQSVDSNYLAWYQQKPGQAPRLLIYSTSTRAAGVPDRFSGSGSGTDFALTISGLEPEDFAVYYCQQWGGSPPITFGQGTRLEIK please. 1.16

Proceed to the following item.
Need EC50, item NI-307.57D5 (antibody, V domains shown) VH: EVQLVESGGGLAQPGGSLRLSCAGSGFTLSDFAMSWVRRAPGKGLEWVSSLTPSGRNSFYSDSVKGRFTISRDNWKNTLYLEMNLLRPEDTAVYYCARPGAPKNSDSKYSYVRVDFQHWGQGTLVTVSS VL: NFMLTQPHSVSESPGRTVTISCTRSSGSIANNFVQWYQHRPGSAPTTLIYEDDQRPSGVPDRFSGSVDSFSNSASLTISGLKTEDEADYFCQSYDNHNWVFGGGTTLTVL 57
